- ASSAY OVERVIEW: protein stability index of a GFP-peptide fusion (yeast GPS) (PSI 1-4); higher = more stable; sorted into four equal gates, so the index is relative within each strain
- CONDITION NOTES: ubr1∆
PROPERTY NAME: protein stability index
Numbers only.

- RESIDUE STRING: "IILGTNLYDGAEHKYMP [BRR2]"
  protein stability index: 3.27

Could I get protein stability index for every one of these entries?
1. IRKFFGLSKEDDVRDFV [RPS6A]
2. DIWQSRDQGNDSLNDDL [YIL149C/MLP2]
3. QRQERLRQQQQQQDQPE [RPN10]
4. KEPVALIETVRQMKDVN [RPN2]
5. DEGLLNMVSLRGRNDTL [GRR1]
6. EVLQGLLQGGAKVVVTT [FAS2]

1. 3.32
2. 3.76
3. 3.22
4. 3.31
5. 2.83
6. 1.61

Source: the supplement of paper PMC9732359
